testTarget: Human FXR full length (Homo sapiens, UniProt Q96RI1)
Construct: Human FXR full length and RXR full length was obtained from Ronald Evans' laboratory; expressed in transfected cells; host or cells: CV-1 cells
Sequence (Q96RI1 1-476 isoform Q96RI1-1): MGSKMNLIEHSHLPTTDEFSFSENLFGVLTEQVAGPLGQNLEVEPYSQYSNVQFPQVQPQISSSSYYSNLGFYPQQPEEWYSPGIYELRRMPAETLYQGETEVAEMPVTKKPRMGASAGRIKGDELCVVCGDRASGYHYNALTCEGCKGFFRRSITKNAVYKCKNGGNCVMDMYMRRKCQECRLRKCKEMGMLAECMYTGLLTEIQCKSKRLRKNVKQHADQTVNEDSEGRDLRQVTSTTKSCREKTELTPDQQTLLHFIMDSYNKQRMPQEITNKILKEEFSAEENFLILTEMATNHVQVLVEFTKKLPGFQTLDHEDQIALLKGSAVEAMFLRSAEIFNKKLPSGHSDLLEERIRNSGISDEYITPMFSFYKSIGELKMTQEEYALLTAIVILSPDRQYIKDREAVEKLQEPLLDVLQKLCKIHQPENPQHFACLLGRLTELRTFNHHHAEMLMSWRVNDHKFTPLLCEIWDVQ
Sequence (P19793 whole entry partner): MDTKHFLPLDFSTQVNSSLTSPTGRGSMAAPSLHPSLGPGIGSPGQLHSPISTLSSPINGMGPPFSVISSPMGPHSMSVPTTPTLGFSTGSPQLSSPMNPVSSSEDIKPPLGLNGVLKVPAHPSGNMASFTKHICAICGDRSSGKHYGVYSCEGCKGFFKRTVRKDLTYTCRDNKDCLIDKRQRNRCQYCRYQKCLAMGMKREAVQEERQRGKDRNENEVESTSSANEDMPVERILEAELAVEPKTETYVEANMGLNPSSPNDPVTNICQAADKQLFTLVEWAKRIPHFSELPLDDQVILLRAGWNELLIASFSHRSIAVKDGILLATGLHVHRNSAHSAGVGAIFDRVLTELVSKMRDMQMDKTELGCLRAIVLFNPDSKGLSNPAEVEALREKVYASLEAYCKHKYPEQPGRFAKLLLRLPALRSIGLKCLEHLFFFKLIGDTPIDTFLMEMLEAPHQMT
assayName: FXR activity screen, luciferase reporter in transfected CV-1 cells
Type: cell-based
reportedConditions: second round; CV-1 cells, 24 hours; read-out: 2nd RND EC50
outcomeMeasure: EC50 (nM)

These recorded examples may help you get a feel for the data.
1. COC(=O)/C=C/c1cccc(N(Cc2ccc(-c3ccc(N(C)C)cc3)cc2F)C(=O)c2ccccc2)c1 ... 457
2. [2H]C(c1ccc(-c2ccc(N(C)C)cc2)cc1F)N(C(=O)C1CCCCC1)c1cncc(/C=C/C(=O)OC)c1 (stereo not shown) ... 375
3. COC(=O)/C=C/c1cc(F)cc(N(Cc2cccc3cc4cnn(C)c4c(F)c23)C(=O)C2CCCCC2)c1 ... 169
4. COC(=O)/C=C/c1cccc(N(Cc2cccc3cc4cnn(C)c4c(F)c23)C(=O)C2CCCCC2)c1 ... 243
5. [2H]C(c1ccc(-c2ccc3c(cnn3C)c2)cc1F)N(C(=O)c1ccccc1)c1cc(F)cc(/C=C/C(=O)OC)c1 (stereo not shown) ... 870
6. [2H]C(c1ccc(-c2ccc3c(cnn3C)c2)cc1)N(C(=O)C1CCCCC1)c1cc(F)cc(/C=C/C(=O)OC)c1 (stereo not shown) ... 375
7. COC(=O)/C=C/c1cc(F)cc(N(Cc2ccc(-c3ccc4c(cnn4C)c3)cc2Cl)C(=O)[C@@H]2C[C@@H]3CC[C@H]2C3)c1 ... 403
8. COC(=O)/C=C/c1cc(F)cc(N(Cc2cccc3cc4cnn(C)c4c(F)c23)C(=O)C2C[C@H]3CC[C@@H]2C3)c1 (stereo partly shown) ... 464
9. COC(=O)/C=C/c1cccc(N(Cc2cccc3cc4cnn(C)c4c(F)c23)C(=O)C2CCN(C)CC2)c1 ... 4900
10. [2H]C(c1ccc(-c2ccc(N(C)C)cc2)cc1F)N(C(=O)[C@@H]1C[C@@H]2CC[C@H]1C2)c1cncc(/C=C/C(=O)OC)c1 (stereo partly shown) ... 510

[1] COC(=O)/C=C/c1cncc(N(Cc2ccc(-c3ccc(N(C)C)cc3)cc2)C(=O)c2ccccc2)c1
[2] COC(=O)/C=C/c1cccc(N(Cc2ccc(-c3ccc4c(cnn4C)c3)cc2Cl)C(=O)c2ccccc2)c1
[3] [2H]C(c1ccc(-c2ccc3c(cnn3C)c2)cc1F)N(C(=O)C1CCCCC1)c1cncc(/C=C/C(=O)OC)c1 (stereo not shown)
# ascending order, key=EC50 Please reply with the labels ordered as requested. Many thanks.
2, 3, 1
(2: 670 nM, 3: 1200 nM, 1: 11200 nM)

----------
testTarget: Human FXR full length (Homo sapiens, UniProt Q96RI1)
Construct: Human FXR full length and RXR full length was obtained from Ronald Evans' laboratory; expressed in transfected cells; host or cells: CV-1 cells
assayName: FXR activity screen, luciferase reporter in transfected CV-1 cells
Type: cell-based
reportedConditions: first round; CV-1 cells, 24 hours; read-out: 1st RND EC50
pEC50: −log10 of the molar value.
outcomeMeasure: pEC50

These recorded examples may help you get a feel for the data.
1) COC(=O)/C=C/c1cccc(N(Cc2ccc(-c3ccc(N(C)C)cc3)cc2F)C(=O)c2ccccc2)c1 ... 6.29
2) COC(=O)/C=C/c1cncc(N(Cc2cccc3cc4cnn(C)c4cc23)C(=O)[C@@H]2C[C@@H]3CC[C@H]2C3)c1 ... 6.42
3) COC(=O)/C=C/c1cccc(N(Cc2ccc(-c3ccc4c(cnn4C)c3)cc2Cl)C(=O)C2CCN(C)CC2)c1 ... 3.81

[P] COC(=O)/C=C/c1cncc(N(Cc2ccc(-c3ccc(N(C)C)cc3)cc2Cl)C(=O)c2ccccc2)c1
[Q] [2H]C(c1ccc(-c2ccc3c(cnn3C)c2)cc1Cl)N(C(=O)c1ccccc1)c1cc(F)cc(/C=C/C(=O)OC)c1 (stereo not shown)
Of P versus Q , which is the one with smaller reported pEC50? Please reply using the label of the selected record.
P

[a] COC(=O)/C=C/c1cc(F)cc(N(Cc2ccc(-c3ccc4c(cnn4C)c3)cc2Cl)C(=O)[C@@H]2C[C@@H]3CC[C@H]2C3)c1
[b] [2H]C(c1ccc(-c2ccc3c(cnn3C)c2)cc1)N(C(=O)c1ccccc1)c1cncc(/C=C/C(=O)OC)c1 (stereo not shown)
a or b : whose pEC50 is greater? Please reply using the label of the selected record.
a
(a: 6.45, b: 6.10)

[1] COC(=O)/C=C/c1cccc(N(Cc2ccc(-c3ccc(N(C)C)cc3)cc2)C(=O)[C@@H]2C[C@@H]3CC[C@H]2C3)c1
[2] COC(=O)/C=C/c1cccc(N(Cc2ccc(-c3ccc(N(C)C)cc3)cc2F)C(=O)[C@@H]2C[C@@H]3CC[C@H]2C3)c1
[3] [2H]C(c1ccc(-c2ccc3c(cnn3C)c2)cc1F)N(C(=O)[C@@H]1C[C@@H]2CC[C@H]1C2)c1cccc(/C=C/C(=O)OC)c1 (stereo partly shown)
[4] COC(=O)/C=C/c1cc(F)cc(N(Cc2ccc(-c3ccc(N(C)C)cc3)cc2Cl)C(=O)c2ccccc2)c1
[5] [2H]C(c1ccc(-c2ccc(N(C)C)cc2)cc1F)N(C(=O)C1CCCCC1)c1cccc(/C=C/C(=O)OC)c1 (stereo not shown)
# ascending order, key=pEC50 Please reply with the labels ordered as requested. Many thanks.
3, 4, 1, 2, 5

[P] [2H]C(c1ccc(-c2ccc3c(cnn3C)c2)cc1F)N(C(=O)c1ccccc1)c1cncc(/C=C/C(=O)OC)c1 (stereo not shown)
[Q] [2H]C(c1ccc(-c2ccc(N(C)C)cc2)cc1Cl)N(C(=O)[C@@H]1C[C@@H]2CC[C@H]1C2)c1cccc(/C=C/C(=O)OC)c1 (stereo partly shown)
Of P versus Q , which is the one with smaller reported pEC50? Please reply using the label of the selected record.
Q
(Q: 6.48, P: 9.40)
